- Tested on: FaDu;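 note: compound exposure in DMEM (4 mM L-glutamine, 5 mM glucose), antimycin A injected at 2 µM after the basal reading and its residual OCR subtracted from basal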
- MEASUREMENT PROTOCOL: mitochondrial oxygen consumption rate normalised to cell number, Z score vs plate DMSO wells; higher = higher oxygen consumption (negative = OCR reduction)
- SETTINGS: 0.08 µM; treatment time 24 h; assay medium: 5 mM glucose, 5 mM pyruvate, 4 mM glutamine
Entries get a class label from measured mitochondrial oxygen consumption rate normalised. See ranges: bucket 1: < -0.4; bucket 2: ≥ -0.4 and < 0.3; bucket 3: ≥ 0.3

Would you please look over these solved cases?
{"MOLECULE": "COc1ccc2cc3[n+](cc2c1OC)CCc1cc2c(cc1-3)OCO2", "CAT": "bucket 2"}
{"MOLECULE": "O=[N+]([O-])c1ccc(O)c2ncccc12", "CAT": "bucket 3"}
{"MOLECULE": "CCN(CC)CCCC(C)Nc1ccnc2cc(Cl)ccc12 (centres undefined)", "CAT": "bucket 2"}
{"MOLECULE": "COc1cccc2c1C(=O)c1c(O)c3c(c(O)c1C2=O)C[C@@](O)(C(=O)CO)C[C@@H]3O[C@H]1C[C@H](N)[C@@H](O)[C@H](C)O1", "CAT": "bucket 2"}
{"MOLECULE": "O=C(Nc1ccc([N+](=O)[O-])cc1Cl)c1cc(Cl)ccc1O", "CAT": "bucket 1"}
{"MOLECULE": "CN(C)C(=O)C(CCN1CCC(O)(c2ccc(Cl)cc2)CC1)(c1ccccc1)c1ccccc1", "CAT": "bucket 3"}
{"MOLECULE": "Cc1cc(C(C)(C)CC(C)(C)C)ccc1OCCOCC[N+](C)(C)Cc1ccccc1", "CAT": "bucket 1"}

Could you now consider this next molecule?
Lab note: sort COc1cc([C@@H]2c3cc4c(cc3[C@@H](O[C@@H]3O[C@@H]5CO[C@@H](c6cccs6)O[C@H]5[C@H](O)[C@H]3O)[C@H]3COC(=O)[C@H]23)OCO4)cc(OC)c1O [Teniposide] into the matching mitochondrial oxygen consumption rate normalised band. bucket 3

Every entry's value here was drawn from the supplement of paper PMC4962491.
